# testTarget: human DGAT1 (Homo sapiens)
# Construct: membrane fraction
# Sequence (O75907 whole entry): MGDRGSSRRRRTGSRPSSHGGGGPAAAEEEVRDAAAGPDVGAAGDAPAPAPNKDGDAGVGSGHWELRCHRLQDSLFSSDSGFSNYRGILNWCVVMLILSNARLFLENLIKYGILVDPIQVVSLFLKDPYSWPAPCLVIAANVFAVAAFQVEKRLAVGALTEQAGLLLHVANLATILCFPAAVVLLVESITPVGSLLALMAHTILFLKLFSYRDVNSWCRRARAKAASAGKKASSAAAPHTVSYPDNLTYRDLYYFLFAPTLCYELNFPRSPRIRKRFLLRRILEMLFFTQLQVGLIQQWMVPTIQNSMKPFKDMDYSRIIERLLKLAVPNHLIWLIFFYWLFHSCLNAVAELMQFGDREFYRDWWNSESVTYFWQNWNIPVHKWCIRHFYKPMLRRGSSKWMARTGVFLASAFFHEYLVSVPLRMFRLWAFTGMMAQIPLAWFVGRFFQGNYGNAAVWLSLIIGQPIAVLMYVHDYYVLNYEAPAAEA
# measurementNotes: Human Enzyme Assay (DGAT1 activity, 14C oleoyl coenzyme A, insect cell membranes)
# setupConditions: human DGAT1 expressed in sf9 insect cell membranes
pIC50: −log10 of the molar value.

- molecule: "O=C(Nc1ccc(O[C@H]2CC[C@H](C(=O)O)CC2)cc1)c1nnc(Nc2ccc(F)cc2)o1 [Example 13]"
  pIC50: 7.77
